Target: T1, cell-bound CD73 (human, UniProt P21589 27-549)
T1 sequence (looked up): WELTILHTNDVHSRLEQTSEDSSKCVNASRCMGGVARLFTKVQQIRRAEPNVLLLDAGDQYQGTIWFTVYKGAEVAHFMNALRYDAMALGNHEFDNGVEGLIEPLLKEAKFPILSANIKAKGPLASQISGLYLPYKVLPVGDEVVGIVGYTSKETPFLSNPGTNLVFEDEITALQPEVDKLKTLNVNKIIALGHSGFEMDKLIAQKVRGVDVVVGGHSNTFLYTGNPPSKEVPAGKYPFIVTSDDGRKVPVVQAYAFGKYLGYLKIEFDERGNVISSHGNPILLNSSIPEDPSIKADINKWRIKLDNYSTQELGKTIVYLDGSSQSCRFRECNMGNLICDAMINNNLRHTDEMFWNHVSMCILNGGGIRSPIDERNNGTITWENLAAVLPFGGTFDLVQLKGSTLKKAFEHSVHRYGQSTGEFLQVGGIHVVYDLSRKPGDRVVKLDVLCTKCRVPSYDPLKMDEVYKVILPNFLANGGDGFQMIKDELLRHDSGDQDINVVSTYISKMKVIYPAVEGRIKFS
Experiment: cell-based or functional assay
measured-property: CD8 T cell proliferation [% of control], Donor E, 1 nM antibody (%)
The reply should be a number in %, with the unit left off.

binder	recorded-result
C4 (antibody, human IgG1, kappa, L234A L235A, V domains shown, Humanized monoclonal antibody; also called C04; inventive anti-CD73 antibody C4) VH: QVQLVQSGAEVKKPGDSVKVSCKASGYTFTTYWMHWVRQAPGQGLEWMGAIYPGLSDTTYNQKFKGKVTMTRDTSTSTVYMKLSSLRSEDTAVYYCARLLDYAMDYWGQGTLVTVSS VL: DIQMTQSPSSLSASVGDRVTITCRASQDIRSYLNWHQQKPGKAPKLLIWYTSRLHSGVPSRFSGSGSGTDYTLTISSLQPEDFATYFCQQGETLPWTFGQGTKLEIKR	100

Input: May I ask what CD8 T cell proliferation [% of control], Donor E, 1 nM antibody has been recorded for C5 (antibody, human IgG1, kappa, L234A L235A, V domains shown, Humanized monoclonal antibody; also called anti-CD73 antibody C5) VH: QVQLVQSGAEVKKPGDSVKVSCKASGYTFTTYWMHWVRQAPGQGLEWMGAIYPGNSDTTYNQKFKGKVTMTRDTSTSTVYMKLSSLRSEDTAVYYCARLLDYAMDYWGQGTLVTVSS VL: DIQMTQSPSSLSASVGDRVTITCRASQDIRSYLNWHQQKPGKAPKLLIWYTSRLHSGVPSRFSGSGSGTDYTLTISSLEPEDFATYFCQQGETLPWTFGQGTKLEIKR ?
Output: 100

Input: C6 (antibody, human IgG1, kappa, L234A L235A, V domains shown, Humanized monoclonal antibody; also called anti-CD73 antibody C6) VH: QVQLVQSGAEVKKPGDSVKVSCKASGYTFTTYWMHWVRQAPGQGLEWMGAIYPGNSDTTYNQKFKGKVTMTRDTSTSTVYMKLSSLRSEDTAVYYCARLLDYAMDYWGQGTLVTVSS VL: DIQMTQSPSSLSASVGDRVTITCRASQDIRNYLNWHQQKPGKAPKLLIWYTSRLHSGVPSRFSGSGSGTDYTLTISSLQPEDFATYFCQQGNTLPWTFGQGTKLEIKR , same question.
Output: 100
